The reported numbers originate from the supplement of paper PMC12613149.

# assayRemarks: collision cross section (TIMS, N2 drift gas) of the primary ion; higher = larger gas-phase ion size
# assayConditions: ionization mode: ESI-; ion species: [M-H]-
Attribute: collision cross section
measureName: collision cross section (Å²)

1) CC(C)(C)c1cc(-n2nc3ccccc3n2)c(O)c(C(C)(C)C)c1
193.86
2) CC1(C)O[C@@H]2C[C@H]3[C@@H]4C[C@H](F)C5=CC(=O)C=C[C@]5(C)[C@@]4(F)[C@@H](O)C[C@]3(C)[C@]2(C(=O)CO)O1 [Fluocinolone acetonide]
198.83
3) CN/C(=C\[N+](=O)[O-])NCCSCc1ccc(CN(C)C)o1
181.06
4) N#C/N=C1/SCCN1Cc1ccc(Cl)nc1
153.51
5) CN=C(NC#N)NCCSCc1nc[nH]c1C
165.63
6) O=C(O)C(F)(OC(F)(F)C(F)(F)C(F)(F)F)C(F)(F)F (stereo not given)
206.28
7) O=C(Nc1ccc(F)cc1)c1cccc(Oc2cccc(C(F)(F)F)c2)n1
186.89
8) CC1(C(=O)Nc2ccc(O)c(Cl)c2Cl)CCCCC1
172.09
9) C[C@@H]1C[C@H]2[C@@H]3CCC4=CC(=O)C=C[C@]4(C)[C@@]3(Cl)[C@@H](O)C[C@]2(C)[C@@]1(OC(=O)c1ccco1)C(=O)CCl [Mometasone fuorate]
214.51
10) CN(C)CC(c1ccc(O)cc1)C1(O)CCCCC1 (stereo not given)
172.85
11) COC(=O)CCc1cc(C(C)(C)C)c(O)c(C(C)(C)C)c1 [Methyl 3-(3,5-di-tert-butyl-4-hydroxyphenyl)propionate]
179.88
12) O=C(O)C1C(C(=O)O)C2(Cl)C(Cl)=C(Cl)C1(Cl)C2(Cl)Cl (stereo not given)
159.01
13) Cc1cnc2ccc3c(nc(N)n3C)c2n1 [2-Amino-3,8-dimethylimidazo-[4,5-f]quinoxaline (MeIQx)]
147.68
14) CCC(=NOC/C=C/Cl)C1=C(O)CC(C2CCOCC2)CC1=O (stereo not given) [Tepraloxydim (two peaks)]
181.89
15) CCC(C)(CC)c1cc(NC(=O)c2c(OC)cccc2OC)on1
186.45
16) CC(Oc1ccc(Oc2cnc3cc(Cl)ccc3n2)cc1)C(=O)O (stereo not given)
192.68
17) Cc1ccc(-c2cc(C(F)(F)F)nn2-c2ccc(S(N)(=O)=O)cc2)cc1
191.15
18) Nc1ccc2c(n1)[nH]c1ccccc12 [2-Amino-9H-pyrido[2,3-b]indole (AalphaC)]
135.27
19) CC1(C)[C@@H](O[C@H]2O[C@H](C(=O)O)[C@@H](O)[C@H](O)[C@H]2O[C@@H]2O[C@H](C(=O)O)[C@@H](O)[C@H](O)[C@H]2O)CC[C@]2(C)[C@H]3C(=O)C=C4[C@@H]5C[C@@](C)(C(=O)O)CC[C@]5(C)CC[C@@]4(C)[C@]3(C)CC[C@@H]12
282.7
20) CC(=NC#N)N(C)Cc1ccc(Cl)nc1
148.19

* * *

Attribute: collision cross section
# assayRemarks: collision cross section (TIMS, N2 drift gas) of the primary ion; higher = larger gas-phase ion size
# assayConditions: ionization mode: ESI+; ion species: [M+H]+
measureName: collision cross section (Å²)

1. CC1CCN(CCCC(=O)c2ccc(F)cc2)CC1
163.5
2. CC1OC(OCC2OC(Oc3c(-c4ccc(O)c(O)c4)oc4cc(O)cc(O)c4c3=O)C(O)C(O)C2O)C(O)C(O)C1O (stereo not given)
233.31
3. Cc1cc(=O)n(-c2ccccc2)n1C
138.2
4. Nc1ccc(Cc2ccc(N)cc2)cc1
162.72
5. Cc1cccc(Nc2ccccc2C(=O)O)c1C
154.45
6. C[C@]12C=CC(=O)C=C1CC[C@@H]1[C@@H]2C(=O)C[C@@]2(C)[C@H]1CC[C@]2(O)C(=O)CO
185.97
7. O=C1Nc2ccc(Cl)cc2C(c2ccccc2Cl)=NC1O (stereo not given)
168.84
8. NC(=O)N1c2ccccc2C=Cc2cc(O)ccc21 [2-Hydroxycarbamazepine]
155.33
9. Cc1cc(N)c2ccccc2n1
128.9
10. CC(C)(C)C(=O)C(Oc1ccc(Cl)cc1)n1ccnc1 (stereo not given)
172.6
11. c1ccc(Nc2cccc3ccccc23)cc1
153.28
12. Fc1ccc(Oc2ccnc3cc(Cl)cc(Cl)c23)cc1
164.99
13. Cc1nccn1CC1CCc2c(c3ccccc3n2C)C1=O (stereo not given)
173.57
14. CCN1CCCC1CNC(=O)c1cc(S(=O)(=O)CC)c(N)cc1OC (stereo not given) [Amisulpride]
193.4
15. C[C@]12CC[C@H]3[C@@H](CCC4=CC(=O)CC[C@@]43C)[C@@H]1CC[C@@H]2O
172.76
16. C[C@H](O)C(=O)Nc1c(I)c(C(=O)NC(CO)CO)c(I)c(C(=O)NC(CO)CO)c1I
216.64
17. CC(C)C1(C)N=C(c2ncccc2C(=O)O)NC1=O (stereo not given)
156.96
18. CCC(C)(C)C(=O)OC1=C(c2ccc(Cl)cc2Cl)C(=O)OC12CCCCC2
193.38
19. c1ccc2ncccc2c1
118.24
20. CNC(=O)c1cc(Oc2ccc(NC(=O)Nc3ccc(Cl)c(C(F)(F)F)c3)cc2)ccn1
214.28
21. CC(C)COP(=O)(OCC(C)C)OCC(C)C [Tri-isobutylphosphate]
165.01
22. CN(C)c1ccc(C(=O)c2ccc(N(C)C)cc2)cc1
166.78
23. O=C(O)CCCCCCCCCCC(=O)O
156.8
24. COc1nc(NC(=O)NS(=O)(=O)c2ccccc2C(F)(F)F)nc(C(F)(F)F)n1
186.88
25. CC(C)(C)Nc1nc(N)nc(Cl)n1
144.23

* * *

Attribute: collision cross section
# assayRemarks: collision cross section (TIMS, N2 drift gas) of the primary ion; higher = larger gas-phase ion size
# assayConditions: ionization mode: ESI+; ion species: [M+H]+
measureName: collision cross section (Å²)

1) CC(C)(Oc1ccc(CCNC(=O)c2ccc(Cl)cc2)cc1)C(=O)O [Bezafibrate]
179.03
2) Nc1ccccc1-c1ccccc1
141.24
3) CCn1cc(C(=O)O)c(=O)c2cc(F)c(N3CCNCC3)cc21
173.95
4) COc1ccc2[nH]cc(CCNC(C)=O)c2c1
153.65
5) CN(C/C=C/C#CC(C)(C)C)Cc1cccc2ccccc12
187.34
6) COc1cc2ccc(=O)oc2c(O)c1O
138.67
7) CO/N=C(/C(=O)OC)c1ccccc1CO/N=C(\C)c1cccc(C(F)(F)F)c1
188.81
8) CN(C)CCC(c1ccc(Cl)cc1)c1ccccn1 (stereo unspecified)
164.13
9) NC(N)=NC(=O)c1nc(Cl)c(N)nc1N [Amiloride]
149.53
10) CCC(C(N)=O)(C(N)=O)c1ccccc1 [Phenylethylmalonamide]
142.07
11) COCCOCCOCCO
135.18

* * *

# assayRemarks: reversed-phase LC retention time (C18, 15 min MeOH gradient); higher = more hydrophobic / later elution
# assayConditions: ionization mode: ESI+; ion species: [M+H]+
Attribute: reversed-phase LC retention time
measureName: reversed-phase LC retention time (min)

1) Nc1ccc(Cl)cc1
8.59
2) CC(Cc1ccc(C(C)(C)C)cc1)CN1CCCCC1 (stereo not drawn)
13.6
3) COc1nc(C)nc(NC(=O)NS(=O)(=O)c2ccccc2CCC(F)(F)F)n1
13.9
4) CN(C)[C@@H]1C(O)=C(C(N)=O)C(=O)[C@@]2(O)C(O)=C3C(=O)c4c(O)cccc4[C@@](C)(O)[C@H]3[C@H](O)[C@@H]12
8.42
5) Oc1ccnc2ccccc12 [4-Hydroxyquinoline]
6.72
6) CCOC(=O)c1cn2nc(OP(=S)(OCC)OCC)cc2nc1C
15.8
7) Nc1ccc(Cc2ccc(N)cc2)cc1
5.68
8) COc1ccc2c3c1O[C@H]1C[C@@H](O)C=C[C@@]31CCN(C)C2
5.92
9) CN(C)c1nc(=O)n(C2CCCCC2)c(=O)n1C
11.7
10) O=C(c1ccc(OCCN2CCCCC2)cc1)c1c(-c2ccc(O)cc2)sc2cc(O)ccc12
11.3
11) CCCCc1nc(Cl)c(CO)n1Cc1ccc(-c2ccccc2-c2nn[nH]n2)cc1
13.3
12) NC12CC3CC(CC(C3)C1)C2
8.82
13) Cc1nnc(-c2ccccc2)c(=O)n1N
8.87
14) C[C@]12CCC3=C4CCC(=O)C=C4CC[C@H]3[C@@H]1CC[C@@]2(O)CC#N
12.6
15) CNC1=C(c2cccc(C(F)(F)F)c2)C(=O)C(c2ccccc2)O1 (stereo not drawn)
13.9
16) COCCOCCOCCO
10.6
17) CCCCCCCCCCCC(=O)NCCO
16.4
18) O=C(O)Cc1ccccc1Nc1c(Cl)cccc1Cl
15.3
19) CC(C1=C(CCN(C)C)Cc2ccccc21)c1ccccn1 (stereo not drawn)
10.4
20) CNC1(c2ccccc2Cl)CCCCC1=O (stereo not drawn)
8.79
21) CCN(CC)c1nc(C)cc(OP(=S)(OC)OC)n1
15.7
22) COCCN(C(=O)CS(=O)(=O)O)c1c(C)cccc1C
10
23) CON(C)C(=O)Nc1ccc(Cl)c(Cl)c1
13.7
24) CCN(CCCCOC(=O)c1ccc(OC)c(OC)c1)C(C)Cc1ccc(OC)cc1 (stereo not drawn)
11.9
25) COC(=O)Nc1nc2ccccc2[nH]1
7.33
26) c1ccc2[nH]cnc2c1
4.16
27) Cc1cnc2c(C(=O)O)c(Cl)ccc2c1
9.27
28) Cc1nc(N(C)C)nc(OC(=O)N(C)C)c1C
10.5
29) CNC(=O)/C(=N/OC)c1ccccc1COc1cc(C)ccc1C
15.3
30) CCNc1nc(NC(C)(C)C)nc(SC)n1
14
31) Nc1ccc2nc3c(N)cccc3nc2c1
8.4
32) CC(=O)Nc1ccc(O)cc1
5.38
33) Nc1nc(N)nc(NC2CC2)n1
3.4
